B1: peptide HD2 (from tick evasin EVA4) / CXCL11 (biotinylated, synthetic) (parent)
chain 1: EEDDYTAYAPLTCYFT
chain 2: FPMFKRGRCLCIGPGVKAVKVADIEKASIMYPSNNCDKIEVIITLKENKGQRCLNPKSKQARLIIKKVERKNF

Variants of: B1
Conditions: with CXCL11 (biotinylated, synthetic); scale: log2
Record form. Attribute: enrichment. Fill in for each entry.
Hey, just send me the number, nothing else.

Ask | Consider the variant shown here: chain 1 Y8C What is its recorded enrichment?
Reply | -6.82

Ask | Let us now turn to chain 1 Y5G
Reply | -4.25

Ask | Lookup chain 1 D4R
Reply | -4.23

Ask | Also chain 1 D4K ?
Reply | -4.01

Ask | Next record, please: chain 1 P10R
Reply | -6.22

Ask | Now consider chain 1 Y14E and answer again.
Reply | -5.9

Ask | Here is the next variant: chain 1 Y8R
Reply | -5.32

Ask | Record: chain 1 Y5S
Reply | -6.24

Ask | Continue with chain 1 Y5Q
Reply | -2.5

Ask | Lookup chain 1 Y8K
Reply | -3.21

Ask | Please answer likewise for chain 1 D4N
Reply | -5.1

Ask | Also check chain 1 Y5D
Reply | -4.19

Ask | And then chain 1 Y5C , what is it?
Reply | -6.3

Ask | Entry chain 1 Y5V please
Reply | -6.41

Ask | Cool, now chain 1 C13I
Reply | -5.31

Ask | // same read-out, input: chain 1 A9K
Reply | -3.76

Ask | Quick one: chain 1 D3R
Reply | -4.59

Ask | Another variant to check: chain 1 E1C
Reply | -6.89

Ask | Also check chain 1 E1R
Reply | -5.11

Ask | And the next one, chain 1 F15N ?
Reply | -3.87

Ask | Try this variant next: chain 1 L11G
Reply | -7.39

Ask | Another variant to check: chain 1 L11N
Reply | -5.58

Ask | chain 1 P10Y ?
Reply | -5.7

Ask | Consider next the variant chain 1 Y5A in the same way.
Reply | -4.21

Ask | Moving on to the next variant: chain 1 T16H
Reply | -4.21

Ask | How about this variant: chain 1 D3Q
Reply | -2.12

Ask | # repeat for chain 1 Y14N
Reply | -4.04

Ask | Okay, and chain 1 E1K ?
Reply | -3.21

Ask | Now the variant chain 1 Y8P
Reply | -5

Ask | Okay, and chain 1 D3P ?
Reply | -4.65

Ask | Follow-up entry: chain 1 Y5E
Reply | -0.621

Ask | Try this variant next: chain 1 P10F
Reply | -6.55

Ask | Same thing, different variant: chain 1 C13Y
Reply | -5.88

Ask | What do you get for chain 1 D4T ?
Reply | -5.01

Ask | Consider next the variant chain 1 D3H in the same way.
Reply | -4.1

Ask | // repeat for chain 1 Y5T and report
Reply | -4.8

Ask | Next variant up: chain 1 T16R
Reply | -6.32
